Data origin: patent US20220177587A1

Form field: IL2-luciferase reporter, fold increase in RLU over WT CD80-IgV-Fc at 5.0 nM (one value per entry).
Molecular target: human PD-L1 (human) (UniProt Q9NZQ7)
Sequence (Q9NZQ7 19-290): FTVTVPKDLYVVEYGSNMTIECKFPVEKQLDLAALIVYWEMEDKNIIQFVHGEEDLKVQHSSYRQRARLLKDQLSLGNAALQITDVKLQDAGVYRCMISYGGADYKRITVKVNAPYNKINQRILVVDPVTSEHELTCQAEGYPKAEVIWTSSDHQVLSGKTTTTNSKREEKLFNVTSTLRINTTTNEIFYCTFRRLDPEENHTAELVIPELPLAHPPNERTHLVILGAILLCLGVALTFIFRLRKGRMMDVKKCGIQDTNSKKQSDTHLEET
reported property: IL2-luciferase reporter, fold increase in RLU over WT CD80-IgV-Fc at 5.0 nM (fold)

binder	readout unit	observed
CD80 E35D/D46V/M47L/V68M/L85Q/E88D IgV-Fc, (EAAAK)3 linker (Fc fusion) VIHVTKEVKEVATLSCGHNVSVEELAQTRIYWQKDKKMVLTMMSGVLNIWPEYKNRTIFDITNNLSIMILALRPSDEGTYECVVQKYDKDAFKREHLAEVTLSVKADEAAAKEAAAKEAAAK	fold	5.25
CD80 E35D/D46V/M47L/V68M/L85Q/E88D IgV-Fc, GS(G4S)5 linker (Fc fusion) VIHVTKEVKEVATLSCGHNVSVEELAQTRIYWQKDKKMVLTMMSGVLNIWPEYKNRTIFDITNNLSIMILALRPSDEGTYECVVQKYDKDAFKREHLAEVTLSVKADGSGGGGSGGGGSGGGGSGGGGSGGGGS	fold	5.26
CD80 E35D/D46V/M47L/V68M/L85Q/E88D IgV-Fc, EAAAK linker (Fc fusion) VIHVTKEVKEVATLSCGHNVSVEELAQTRIYWQKDKKMVLTMMSGVLNIWPEYKNRTIFDITNNLSIMILALRPSDEGTYECVVQKYDKDAFKREHLAEVTLSVKADEAAAK	fold	3.75
CD80 E35D/M47V/N48K/V68M/K89N IgV-Fc, (EAAAK)3 linker (Fc fusion) VIHVTKEVKEVATLSCGHNVSVEELAQTRIYWQKDKKMVLTMMSGDVKIWPEYKNRTIFDITNNLSIMILALRPSDEGTYECVVLKYENDAFKREHLAEVTLSVKADEAAAKEAAAKEAAAK	fold	4.52
CD80 E35D/M47V/N48K/V68M/K89N IgV-Fc, EAAAK linker (Fc fusion) VIHVTKEVKEVATLSCGHNVSVEELAQTRIYWQKDKKMVLTMMSGDVKIWPEYKNRTIFDITNNLSIMILALRPSDEGTYECVVLKYENDAFKREHLAEVTLSVKADEAAAK	fold	4.38
